- assay.remarks: Lipophilic-hydrophilic balance, Rm of the compound by reversed-phase chromatographic analysis
- Type: physicochemical
Outcome: y for Rm of at least 0.2; n for anything lower.

1. Br.O=S(=O)(CCCNc1ccnc2ccccc12)Nc1ccc(Nc2c3ccccc3nc3ccccc23)cc1    n

Decide: Rm of `Cl.O.c1ccc(OCCCCCNc2ccnc3ccccc23)c(Nc2c3ccccc3nc3ccccc23)c1` >= 0.2?
y

Has `Cl.c1ccc(OCCCCCOc2ccccc2Nc2c3ccccc3nc3ccccc23)c(Nc2c3ccccc3nc3ccccc23)c1` a recorded Rm greater than or equal to 0.2?
y

I'd appreciate it if you could say whether `Cl.c1ccc(OCCCCCCCCCOc2ccccc2Nc2c3ccccc3nc3ccccc23)c(Nc2c3ccccc3nc3ccccc23)c1` has Rm at least equal to 0.2.
y

Exam item: decide whether the reported Rm for `Cl.O.c1ccc(OCCCCCCCNc2ccnc3ccccc23)c(Nc2c3ccccc3nc3ccccc23)c1` is at least 0.2.
y

Could you please find out whether `Cl.O=S(=O)(CCCCCCNc1c2ccccc2nc2ccccc12)Nc1ccc(Nc2c3ccccc3nc3ccccc23)cc1` has Rm that meets 0.2 or exceeds it?
n

For this compound, is measured Rm 0.2 or higher? `Cl.c1ccc(OCCCCCCCCOc2ccccc2Nc2c3ccccc3nc3ccccc23)c(Nc2c3ccccc3nc3ccccc23)c1`
y

Is the recorded value of Rm equal to or greater than 0.2 for this compound? `CS(=O)(=O)Nc1ccc(Nc2c3ccccc3nc3c(C(N)=O)cccc23)c(OCCCCOc2cc(NS(C)(=O)=O)ccc2Nc2c3ccccc3nc3c(C(N)=O)cccc23)c1.Cl.O`
n

---

Items are presented alongside their recorded log10 of C50.
- Species: Bos taurus
- assay.remarks: Displacement of ethidium bromide from calf thymus DNA by spectrofluorometric analysis
Values below are the log10 of the recorded C50, with µM as the unit.

Below, each entry is followed by its recorded log10 of C50 result.
1. COc1cc(NS(=O)(=O)CCCCS(=O)(=O)Nc2ccc(Nc3c4ccccc4nc4c(C(N)=O)cccc34)c(OC)c2)ccc1Nc1c2ccccc2nc2c(C(N)=O)cccc12.Cl.O    -1.17
2. Cl.c1ccc(OCCCCCCCCCCOc2ccccc2Nc2c3ccccc3nc3ccccc23)c(Nc2c3ccccc3nc3ccccc23)c1    0.90
3. c1ccc2c(NCCCCCNc3c4ccccc4nc4ccccc34)c3ccccc3nc2c1    -0.68
4. Cl.O.O=S(=O)(CCNc1ncnc2ccccc12)Nc1ccc(Nc2c3ccccc3nc3ccccc23)cc1    -0.17

Entry `Cl.O.c1ccc(OCCCCCNc2ccnc3ccccc23)c(Nc2c3ccccc3nc3ccccc23)c1` needs its log10 of C50 filled in; supply it.
0.28

Give the reported log10 of C50 for this molecule. `Cl.c1ccc(OCCCCCCCCCOc2ccccc2Nc2c3ccccc3nc3ccccc23)c(Nc2c3ccccc3nc3ccccc23)c1`
0.52

---

- assay.remarks: Toxicity in ip dosed BDF1 mouse allografted with mouse P388 cells administered qd for 5 days
- Format: organism-based
- stated.conditions: BDF1, mouse, in vivo
attribute.measured: MTD at 120 h (mg/kg/day)
The figure you give is taken to be in mg/kg/day; do not add the unit.

The examples below pair each entry with its known result.
1) c1ccc2c(NCCCCCCCCCCCCNc3c4ccccc4nc4ccccc34)c3ccccc3nc2c1    5
2) Cl.O.c1ccc(OCCCCNc2ccnc3ccccc23)c(Nc2c3ccccc3nc3ccccc23)c1    20
3) c1ccc2c(NCCNc3c4ccccc4nc4ccccc34)c3ccccc3nc2c1    5

Identify the reported MTD at 120 h for the following entry. `Cl.O.c1ccc(OCCCCCNc2ccnc3ccccc23)c(Nc2c3ccccc3nc3ccccc23)c1`
17

Retrieve MTD at 120 h measured for `O.c1ccc(OCCCNc2ccnc3ccccc23)c(Nc2c3ccccc3nc3ccccc23)c1` and print it.
50

---

Recorded log10(C50) for the following molecules
- Species: Bos taurus
- assay.remarks: Displacement of ethidium bromide from calf thymus DNA by spectrofluorometric analysis
log10 C50, µM

Some entries whose results are on file:
1) Cl.c1ccc(OCCCCCCOc2ccccc2Nc2c3ccccc3nc3ccccc23)c(Nc2c3ccccc3nc3ccccc23)c1    0.32
2) c1ccc(Nc2c3ccccc3nc3ccccc23)cc1    1.11

Read the next record carefully.
Give log10(C50) for the following molecule: `Br.O.O=S(=O)(CCNc1ccnc2ccccc12)Nc1ccc(Nc2c3ccccc3nc3ccccc23)cc1`
-0.92

---

- assay.remarks: Lipophilic-hydrophilic balance, Rm of the compound by reversed-phase chromatographic analysis
- Format: physicochemical
// values below are reported Rm
A bare number is all that is needed in reply.

Using known records, supply Rm for `Cl.O.O=S(=O)(CCCCCNc1ccnc2ccccc12)Nc1ccc(Nc2c3ccccc3nc3ccccc23)cc1`
-0.24

Hello, please tell me recorded Rm for this one: `Br.O.O=S(=O)(CCNc1ccnc2ccccc12)Nc1ccc(Nc2c3ccccc3nc3ccccc23)cc1`
-0.54

Provide one value: measured Rm of `Cl.c1ccc(OCCCCOc2ccccc2Nc2c3ccccc3nc3ccccc23)c(Nc2c3ccccc3nc3ccccc23)c1`
0.53

Supply recorded Rm for `Cl.O=S(=O)(CCCCS(=O)(=O)Nc1ccc(Nc2c3ccccc3nc3ccccc23)cc1)Nc1ccc(Nc2c3ccccc3nc3ccccc23)cc1` here.
-0.11

Respond only with Rm recorded for `c1ccc2c(NCCCCCCCNc3c4ccccc4nc4ccccc34)c3ccccc3nc2c1`
0.27

Indicate its recorded Rm; the molecule in question is `COc1cc(NS(=O)(=O)CCCS(=O)(=O)Nc2ccc(Nc3c4ccccc4nc4ccccc34)c(OC)c2)ccc1Nc1c2ccccc2nc2ccccc12.CS(=O)(=O)O.O`
0.22

Give reported Rm value for `Cl.c1ccc(OCCCCCCOc2ccccc2Nc2c3ccccc3nc3ccccc23)c(Nc2c3ccccc3nc3ccccc23)c1`
0.71

Look up Rm of `Cl.O.O=S(=O)(CCCCNc1c2ccccc2nc2ccccc12)Nc1ccc(Nc2c3ccccc3nc3ccccc23)cc1` and report it.
-0.1

Name the recorded Rm of the molecule listed here: `c1ccc2c(NCCCCCCNc3c4ccccc4nc4ccccc34)c3ccccc3nc2c1`
0.13

Identify measured Rm associated with `CS(=O)(=O)Nc1ccc(Nc2c3ccccc3nc3ccccc23)c(OCCCCOc2cc(NS(C)(=O)=O)ccc2Nc2c3ccccc3nc3ccccc23)c1.Cl`
0.01

Consider the molecule `c1ccc(Nc2c3ccccc3nc3ccccc23)cc1` and give its recorded Rm.
0.43

Specify reported Rm for the molecule shown: `COc1cc(NS(=O)(=O)CCCCS(=O)(=O)Nc2ccc(Nc3c4ccccc4nc4c(C(N)=O)cccc34)c(OC)c2)ccc1Nc1c2ccccc2nc2c(C(N)=O)cccc12.Cl.O`
-0.64

---

- assay.remarks: Lipophilic-hydrophilic balance, Rm of the compound by reversed-phase chromatographic analysis
- Assay type: physicochemical
Parameter: Rm. Scope: all listed entries.
# print the numeric value only

1) COc1cc(NS(=O)(=O)CCCCCS(=O)(=O)Nc2ccc(Nc3c4ccccc4nc4ccccc34)c(OC)c2)ccc1Nc1c2ccccc2nc2ccccc12.CS(=O)(=O)O.O    0.35
2) Cl.O.c1ccc(OCCCCNc2ccnc3ccccc23)c(Nc2c3ccccc3nc3ccccc23)c1    -0.07
3) Cl.O.O=S(=O)(CCCCCNc1c2ccccc2nc2ccccc12)Nc1ccc(Nc2c3ccccc3nc3ccccc23)cc1    -0.04

// below: Rm requested for another compound
Please report Rm for the following compound: `Cl.O.O=S(=O)(CCNc1ncnc2ccccc12)Nc1ccc(Nc2c3ccccc3nc3ccccc23)cc1`
-0.53

---

- Organism: Bos taurus
- assay.remarks: Displacement of ethidium bromide from calf thymus DNA by spectrofluorometric analysis
attribute.measured: C50 (µM)
The reply should be a number in µM, with the unit left off.

1) Cl.c1ccc(OCCCCCOc2ccccc2Nc2c3ccccc3nc3ccccc23)c(Nc2c3ccccc3nc3ccccc23)c1    1.4

Supply C50 value. Item: `COc1cc(NS(=O)(=O)CCCCS(=O)(=O)Nc2ccc(Nc3c4ccccc4nc4ccccc34)c(OC)c2)ccc1Nc1c2ccccc2nc2ccccc12`
0.057

Answer with the recorded C50 for the molecule listed here: `Cl.O=S(=O)(CCCCCCNc1c2ccccc2nc2ccccc12)Nc1ccc(Nc2c3ccccc3nc3ccccc23)cc1`
0.21

Please look at this molecule and report its C50: `Cl.O.O=S(=O)(CCCCCNc1c2ccccc2nc2ccccc12)Nc1ccc(Nc2c3ccccc3nc3ccccc23)cc1`
0.17

Determine its reported C50: `Cl.c1ccc(OCCCOc2ccccc2Nc2c3ccccc3nc3ccccc23)c(Nc2c3ccccc3nc3ccccc23)c1`
0.6

Annotate the molecule `Cl.O.O=S(=O)(CCCS(=O)(=O)Nc1ccc(Nc2c3ccccc3nc3ccccc23)cc1)Nc1ccc(Nc2c3ccccc3nc3ccccc23)cc1` with its measured C50.
0.064

Quote C50 reported for `CCOc1cc(NS(C)(=O)=O)ccc1Nc1c2ccccc2nc2ccccc12` please.
19

// Input: `c1ccc2c(NCCCCCCCCNc3c4ccccc4nc4ccccc34)c3ccccc3nc2c1` . Output its C50 only.
0.11

Note down C50 recorded for `Br.O.O=S(=O)(CCCCCCNc1ccnc2ccccc12)Nc1ccc(Nc2c3ccccc3nc3ccccc23)cc1`
0.65

Return C50 (reported value) for this molecule: CCN(CC)CCCC(C)Nc1ccnc2cc(Cl)ccc12.Cl (configuration not stated)
11

For the molecule `COc1cc(NS(=O)(=O)CCCCS(=O)(=O)Nc2ccc(Nc3ccnc4ccccc34)c(OC)c2)ccc1Nc1ccnc2ccccc12.Cl.O` , give its reported C50.
7.5

Answer with reported C50 of CCN(CC)CCCC(C)Nc1c2ccc(Cl)cc2nc2ccc(OC)cc12.CS(C)(=O)=O (configuration not stated)
0.51

For `c1ccc2c(NCCCCCCCCCCCCNc3c4ccccc4nc4ccccc34)c3ccccc3nc2c1` , write its C50.
0.11

Quote C50 reported for `Cl.O.O=S(=O)(CCCNc1c2ccccc2nc2ccccc12)Nc1ccc(Nc2c3ccccc3nc3ccccc23)cc1` please.
0.1

# return recorded C50 for input `Cl.O.O=S(=O)(CCNc1c2ccccc2nc2ccccc12)Nc1ccc(Nc2c3ccccc3nc3ccccc23)cc1`
0.09

Please give the documented C50 of `Br.O=S(=O)(CCCCNc1ccnc2ccccc12)Nc1ccc(Nc2c3ccccc3nc3ccccc23)cc1`
0.18

Give reported C50 value for Cl.Nc1c2ccccc2nc2ccccc12 [AMINACRINE HYDROCHLORIDE]
8.1
